Each item that follows carries a reported activation.
system: Nuclear hormone receptor DAF-12 (Strongyloides stercoralis); assay: S. stercoralis DAF-12 nuclear receptor activators, primary screen, cell-based, luminescence, HEK293, GRIP1 co-expression, lit1-tk-luc (AID 652126); conditions: HEK293 ssDAF-12/GRIP1 lit1-tk-luc reporter, at 6.8 µM, active compounds read high, % of 3 µM dafachronic acid response;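 further: 0% = DMSO-only wells and 100% = 3 µM delta7-dafachronic acid wells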
The whole screen tested about 370,000 compounds, of which about 3,700 (1%) were called active. For the sample, actives were picked, then their nearest neighbours and some compounds at random.
API: value field is a number in %; no unit string.

Use the examples below as a reference point.
{"COMPOUND": "COc1ccc(-c2cc(C(=O)NC(C(=O)O)C(C)C)c(C)o2)cc1OC (stereo unspecified)", "UNIT ANNOTATION": "%", "activation": -0.63}
{"COMPOUND": "O=C(Oc1ccc(-c2nc(-c3ccccn3)no2)cc1)c1ccccc1", "UNIT ANNOTATION": "%", "activation": -0.56}
{"COMPOUND": "CCN(CC)C(=O)CC[C@@H]1CC[C@]2(CCCN(S(=O)(=O)C3CCCCC3)C2)O1", "UNIT ANNOTATION": "%", "activation": -1.11}
{"COMPOUND": "COc1ccc(C(=O)Nc2ccnn2C2CCN(Cc3ccncc3)CC2)cc1", "UNIT ANNOTATION": "%", "activation": -0.78}
{"COMPOUND": "COc1ccccc1C(=O)COC(=O)CSCC(=O)Nc1cc(C)on1", "UNIT ANNOTATION": "%", "activation": 1.36}
{"COMPOUND": "CC(=O)OC12CCCN(C1)/C(=C/c1ccncc1)C2 (stereo unspecified)", "UNIT ANNOTATION": "%", "activation": -1.9}
{"COMPOUND": "CN(Cc1ccc(F)cc1)C(=O)COc1ccc2ccccc2c1", "UNIT ANNOTATION": "%", "activation": -0.45}
{"COMPOUND": "CCN(CC)S(=O)(=O)c1ccc(NC(=O)c2cnc(C)cn2)cc1", "UNIT ANNOTATION": "%", "activation": 1.35}
{"COMPOUND": "Cc1c(C(=O)Nc2ccccn2)oc2ccc(Br)cc12", "UNIT ANNOTATION": "%", "activation": 1.84}
{"COMPOUND": "CCN(CC)S(=O)(=O)c1ccc(NC(=O)c2cccnc2Cl)c(NC(=O)c2cccnc2Cl)c1", "UNIT ANNOTATION": "%", "activation": -0.9}

Suppose we examine the compound "CN(Cc1nc2ccccc2s1)C(=O)c1ccc(F)cc1" ; what activation value has been reported? 1.11

Suppose we examine the compound "COc1cc(/C=C/C(=O)n2cnc3ccccc32)cc(OC)c1OC" ; what activation value has been reported? -2.15

Suppose we examine the compound "CCc1nonc1NC(=O)c1oc2ccc(Cl)cc2c1C" ; what activation value has been reported? -0.87

Suppose we examine the compound "O=C(CSc1nnc(COc2ccccc2)n1-c1ccc(Cl)cc1)Nc1ccc2c(c1)OCO2" ; what activation value has been reported? -0.91

Suppose we examine the compound "Cc1ccc(C(=O)N/N=C/c2sc(=O)n(Cc3cccc(C(=O)O)c3)c2Cl)cc1" ; what activation value has been reported? 0.05

Suppose we examine the compound CCc1cc(C(c2ccccc2OC)N2CCOCC2)c(NC(=O)c2ccccc2)s1 (stereo unspecified) ; what activation value has been reported? -1.1
